experiment: Half life in BALB/c mouse at 1 mg/kg, iv by LC-MS/MS analysis; assay type: ADME, organism-based; parameters: dose 1 mg/kg, route intravenous; conditions: in vivo
ENDPOINT_LABEL: half-life (h)
The reply should contain only the number, in h.

Exam item: Look at this compound and give its reported half-life. CN(C)CC[C@@H](c1ccccc1)n1cc(NC(=O)c2n[nH]c3c2CCC(C)(C)C3)cn1
Marked response: 2.9

---

assay: physchem; conditions: 1-octanol/phosphate buffer, pH 7.4, logD
Some compounds, each annotated with its measured logD at 20 min, 10000 µM.

The examples below pair each entry with its known result.
| COMPOUND | logD at 20 min, 10000 µM |
| --- | --- |
| CC1(C)CCc2c(C(=O)Nc3cnn(Cc4ccccc4)c3)n[nH]c2C1 | 4.3 |
| N#Cc1cccc(Cn2cc(NC(=O)c3n[nH]c4ccccc34)cn2)c1 | 3 |
| O=C(Nc1cnn(Cc2ccccc2)c1)c1n[nH]c2c1CC1CC1C2 (stereo not given) | 2 |
| CN(C)C[C@@H](c1ccccc1)n1cc(NC(=O)c2n[nH]c3c2CCC(C)(C)C3)cn1 | 2.7 |

Kindly review the next compound as well.
Exam item: Look at this compound and give its reported logD at 20 min, 10000 µM. CC1(CO)CCc2c(C(=O)Nc3cnn(Cc4ccccc4)c3)n[nH]c2C1 (racemic)
Marked response: 2.6

Just for reference, ChEMBL document CHEMBL3297697 is where these values come from.
